- PROTOCOL_DETAILS: Pharmacokinetic (PK) studies in Balb/c mouse
- Assay type: in vivo
- CONDITION_SET: mouse, in vivo; female Balb/c mice, PO, 10 mg/kg, blood (TNO-155: plasma); read-out: T1/2 (converted)

MOLECULE | half-life [min]
C[C@@H]1OCC2(CCN(c3ncc(Sc4ccnc(N5CC(C(C)(C)O)C5)c4Cl)nc3CO)CC2)[C@@H]1N [Example 12] | 428

----------
- PROTOCOL_DETAILS: Pharmacokinetic (PK) studies in beagle dog
- Type: in vivo
- CONDITION_SET: dog, in vivo; male beagle dogs, PO, 2.5 mg/kg, plasma

STRUCTURE | AUC(0-t) / ng·h/mL
C[C@@H]1OCC2(CCN(c3ncc(Sc4ccnc(N5CC(C(C)(C)O)C5)c4Cl)nc3CO)CC2)[C@@H]1N | 11000

----------
- PROTOCOL_DETAILS: Pharmacokinetic (PK) studies in SD rat
- Format: in vivo
- CONDITION_SET: rat; male SD rats, IV, 1 mg/kg, plasma
OUTCOME_MEASURE: clearance

COMPOUND | OUTCOME_MEASURE | VALUE_MEASURED
Cc1nc(N2CCC3(CC2)CO[C@@H](C)[C@H]3N)c(CO)nc1Sc1ccnc(N)c1Cl [Control Compound 2] | clearance | 24.6 mL/min/kg

----------
Known clearance of a selection of compounds
- PROTOCOL_DETAILS: Pharmacokinetic (PK) studies in beagle dog
- Type: in vivo
- CONDITION_SET: dog; male beagle dogs, IV, 0.5 mg/kg, plasma
- Experimental: Test Example 8: Pharmacokinetic (PK) Studies in Beagle Dog The compound of Example 12, Control Compound 1, Control Compound 2, and TNO-155 were administered to male beagle dogs by intravenous injection (IV) and gavage (PO) respectively to estimate the pharmacokinetic properties. Dosing amounts for IV and PO routes were 0.5 mg/kg and 2.5 mg/kg. The solvent for IV route was 5% DMSO+5% Solutol+90% Saline, and the solvent for PO route was 0.5% MC (sodium methylcellulose). […]

COMPOUND | clearance [mL/min/kg]
Cc1nc(N2CCC3(CC2)CO[C@@H](C)[C@H]3N)c(CO)nc1Sc1ccnc(N)c1Cl [Control Compound 2] | 13.2
C[C@@H]1OCC2(CCN(c3ncc(Sc4ccnc(N5CC(O)C5)c4Cl)nc3CO)CC2)[C@@H]1N [Control Compound 1] | 7.08
C[C@@H]1OCC2(CCN(c3cnc(Sc4ccnc(N)c4Cl)c(N)n3)CC2)[C@@H]1N [TNO-155, reference compound] | 3.43

----------
- PROTOCOL_DETAILS: Pharmacokinetic (PK) studies in Balb/c mouse
- Type: in vivo
- CONDITION_SET: mouse, whole blood (TNO-155: plasma); female Balb/c mice, PO, 10 mg/kg, blood (TNO-155: plasma); read-out: T1/2 (converted)
OUTCOME_MEASURE: half-life (h)

COMPOUND | VALUE_MEASURED
C[C@@H]1OCC2(CCN(c3cnc(Sc4ccnc(N)c4Cl)c(N)n3)CC2)[C@@H]1N [TNO-155, reference compound] | 1.69

----------
- PROTOCOL_DETAILS: Pharmacokinetic (PK) studies in SD rat
- Type: in vivo
- CONDITION_SET: rat; male SD rats, PO, 5 mg/kg, plasma

MOLECULE | AUC(0-t) [ng·h/mL]
Cc1nc(N2CCC3(CC2)CO[C@@H](C)[C@H]3N)c(CO)nc1Sc1ccnc(N)c1Cl [Control Compound 2] | 2760

----------
- PROTOCOL_DETAILS: Pharmacokinetic (PK) studies in SD rat
- Type: in vivo
- CONDITION_SET: rat, in vivo; male SD rats, IV, 1 mg/kg, plasma

MOLECULE | clearance / mL/min/kg
C[C@@H]1OCC2(CCN(c3ncc(Sc4ccnc(N5CC(C(C)(C)O)C5)c4Cl)nc3CO)CC2)[C@@H]1N [Example 12] | 9.8

----------
- System: KYSE-520 cell (human esophageal squamous cell carcinoma cell)
- PROTOCOL_DETAILS: Inhibition of the proliferation activity of KYSE-520 cell (CellTiter-Glo)
- Format: cell-based
- CONDITION_SET: 120 h, KYSE-520 cell proliferation, 5 days

COMPOUND | UNIT | IC50
CC(O)C1CN(c2nccc(Sc3cnc(N4CCC5(CC4)CO[C@@H](C)[C@H]5N)c(CO)n3)c2Cl)C1 (stereo partly shown) [Example 17] | nM | 30
C[C@@H]1OCC2(CCN(c3ncc(Sc4ccnc(N5CC(C#N)(CO)C5)c4Cl)nc3CO)CC2)[C@@H]1N [Example 47] | nM | 40
C[C@@H]1OCC2(CCN(c3ncc(Sc4ccnc(N5CCCC5CC#N)c4Cl)nc3CO)CC2)[C@@H]1N (stereo partly shown) [Example 18] | nM | 240
CC(C)(O)C1CN(c2nccc(Sc3cnc(N4CCC5(CC4)Cc4ccccc4[C@H]5N)c(CO)n3)c2Cl)C1 [Example 23] | nM | 140
C[C@@H]1OCC2(CCN(c3ncc(Sc4ccnc(N5CC(C)(CS(C)(=O)=O)C5)c4Cl)nc3CO)CC2)[C@@H]1N [Example 29] | nM | 40
CC(C)(O)C1CN(c2nccc(Sc3cnc(N4CCC5(CC4)Oc4ccccc4[C@H]5N)c(CO)n3)c2Cl)C1 [Example 22] | nM | 50
CC(C)(O)C1CN(c2nccc(Sc3cnc(N4CCC5(CC4)Cc4ncccc4[C@H]5N)cn3)c2Cl)C1 [Example 45] | nM | 210

----------
- MEASUREMENT_TARGET: recombinant full-length human PTPN11 (SHP2) (Homo sapiens)
- Construct: recombinant full-length human PTPN11 (SHP2), active (SignalChem); purchased SignalChem
- Sequence (Q06124 1-593): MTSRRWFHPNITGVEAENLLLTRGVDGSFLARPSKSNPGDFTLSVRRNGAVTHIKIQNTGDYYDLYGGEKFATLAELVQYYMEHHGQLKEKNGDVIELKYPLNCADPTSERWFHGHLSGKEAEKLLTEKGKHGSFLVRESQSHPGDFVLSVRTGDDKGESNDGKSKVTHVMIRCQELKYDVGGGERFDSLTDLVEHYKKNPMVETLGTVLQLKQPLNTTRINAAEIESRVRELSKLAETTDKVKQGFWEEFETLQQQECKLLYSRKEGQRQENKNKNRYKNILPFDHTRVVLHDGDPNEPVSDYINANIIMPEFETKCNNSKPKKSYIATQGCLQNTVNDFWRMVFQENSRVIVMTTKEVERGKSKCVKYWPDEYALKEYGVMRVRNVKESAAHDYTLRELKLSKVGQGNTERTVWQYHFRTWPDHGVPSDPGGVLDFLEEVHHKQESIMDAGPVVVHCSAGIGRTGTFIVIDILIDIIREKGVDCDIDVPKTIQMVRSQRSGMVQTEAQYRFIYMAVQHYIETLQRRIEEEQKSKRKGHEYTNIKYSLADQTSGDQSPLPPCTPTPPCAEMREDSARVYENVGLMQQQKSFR
- PROTOCOL_DETAILS: Inhibition of in vitro enzyme activity of SHP2 (DiFMUP fluorescence endpoint assay)
- Type: biochemical
- CONDITION_SET: SHP2 0.5 nM, DiFMUP 200 μM, IRS-1 0.5 μM; 60 min incubation

STRUCTURE | UNIT | IC50
C[C@@H]1OCC2(CCN(c3ncc(Sc4ccnc(NCC5(O)CC5)c4Cl)nc3CO)CC2)[C@@H]1N | nM | 2.4
C[C@@H]1OCC2(CCN(c3cnc(Sc4ccnc(N5CC(C(C)(C)O)C5)c4Cl)cn3)CC2)[C@@H]1N | nM | 2.45
C[C@@H]1OCC2(CCN(c3ncc(Sc4ccnc(N5CC(C(C)(C)O)C5)c4Cl)nc3CO)CC2)[C@@H]1N | nM | 2.5
Cc1nc(N2CCC3(CC2)Cc2ncccc2[C@H]3N)c(CO)nc1Sc1ccnc(N2CC(C(C)(C)O)C2)c1Cl | nM | 4.84

----------
- PROTOCOL_DETAILS: Pharmacokinetic (PK) studies in SD rat
- Assay type: in vivo
- CONDITION_SET: rat; male SD rats, IV, 1 mg/kg, plasma
OUTCOME_MEASURE: AUC(0-t)

COMPOUND | OUTCOME_MEASURE | VALUE_MEASURED
Cc1nc(N2CCC3(CC2)CO[C@@H](C)[C@H]3N)c(CO)nc1Sc1ccnc(N)c1Cl [Control Compound 2] | AUC(0-t) | 696 ng·h/mL

----------
- MEASUREMENT_TARGET: recombinant full-length human PTPN11 (SHP2) (Homo sapiens, UniProt Q06124)
- Construct: recombinant full-length human PTPN11 (SHP2), active (SignalChem); purchased SignalChem
- PROTOCOL_DETAILS: Inhibition of in vitro enzyme activity of SHP2 (DiFMUP fluorescence endpoint assay)
- Type: biochemical
- CONDITION_SET: SHP2 0.5 nM, DiFMUP 200 μM, IRS-1 0.5 μM; 60 min incubation

COMPOUND | IC50 / nM
C[C@@H]1OCC2(CCN(c3ncc(Sc4ccnc(N5CCCC5CO)c4Cl)nc3CO)CC2)[C@@H]1N (stereo partly shown) | 1.82
CC(C)(O)C1CN(c2nccc(Sc3cnc(N4CCC5(CC4)Cc4ncccc4[C@H]5N)c(CO)n3)c2Cl)C1 | 2.6
CC(C)(O)C1CN(c2nccc(Sc3cnc(N4CCC5(CC4)Oc4ccccc4[C@H]5N)c(CO)n3)c2Cl)C1 | 4.3
C[C@@H]1OCC2(CCN(c3ncc(Sc4ccnc(N5CC(CO)C5)c4Cl)nc3CO)CC2)[C@@H]1N | 1.76
C[C@@H]1OCC2(CCN(c3ncc(Sc4ccc(N5CC(C(C)(C)O)C5)nc4Cl)nc3CO)CC2)[C@@H]1N | 9.3
CC(C)(O)C1CN(c2nccc(Sc3cnc(N4CCC5(CC4)Oc4ccc(F)cc4[C@H]5N)cn3)c2Cl)C1 | 8.4
C[C@@H]1OCC2(CCN(c3ncc(Sc4ccnc(N5CC(C#N)(CO)C5)c4Cl)nc3CO)CC2)[C@@H]1N | 3.2
